# METHOD_SUMMARY: gradient 5% acetonitrile 3 min, to 50% in 2 min, to 85% in 15 min, held 3 min, 100 µL/min
# REPORTED_CONDITIONS: column: Zorbax Extend-C18 2.1 x 50 mm; eluents: water / acetonitrile, 0.1% formic acid
METRIC_NAME: RP-LC retention time (s)
Return type: number; implicit unit s.

Task: # lookup: RP-LC retention time of "Cc1ccc(Cl)cc1NC(=O)Cn1nc2c(Oc3ccc(C(C)C)cc3)nccn2c1=O"
Result: 1080

Task: Look up RP-LC retention time: "O=C(Cc1csc2nc(-c3ccccc3)cn12)NC1CCCCCCC1"
Result: 877

Task: RP-LC retention time lookup needed for CCOc1ccccc1C(=O)N1CCCC1c1nc(-c2ccccc2OC)no1 (stereo unspecified) , thanks.
Result: 886

Task: Dear colleague, I am looking for the recorded RP-LC retention time of the following molecule: CCc1cccc(NC(=O)C2CCN(S(=O)(=O)c3ccc4c(c3)CC(C)N4C(C)=O)CC2)c1 (stereo unspecified)
Result: 942

Task: What RP-LC retention time value was documented for this molecule, CC1Cc2ccccc2N1C(=O)c1ccc(Cl)cc1 (stereo unspecified) ?
Result: 972

Task: Which RP-LC retention time value is on record for Cc1ccc(C)c(NC(=O)CN2C(=O)NC3(CCC(C)CC3)C2=O)c1 (stereo unspecified) ?
Result: 777

Task: GET /values?readout=RP-LC retention time&item= "CCCN1C(=O)COc2ccc(-c3noc(CNC(=O)Cc4ccccc4)n3)cc21"
Result: 849

Task: What measured RP-LC retention time goes with "CNC(=O)c1cccc(Nc2c(-c3ccc(N(C)C)cc3)nc3cnccn23)c1" ?
Result: 610

Task: I have this molecule here, "Cn1c(=O)c(SCC(=O)NCCCc2ccccc2)nc2ccccc21" , and I need its recorded RP-LC retention time.
Result: 840

Task: // lookup RP-LC retention time for "CCN1CCCn2cc(S(=O)(=O)Nc3ccc(C)cc3Cl)cc2C1=O"
Result: 775

Task: Look up RP-LC retention time for this molecule: "Cc1cc(C)cc(Nc2nc(C)cc3nn(CC(=O)NC4CCCC4)c(=O)n23)c1"
Result: 998
